Each entry below lists one item and its recorded mortality at 100 µM value.
# System: Schistosoma japonicum
# assay-details: Anti-schistosomal activity against adult Schistosoma japonicum assessed as worm mortality at 100 uM measured at 4 hrs relative to control
# Format: functional

Recorded mortality at 100 µM, per entry:
- molecule: "CCOC(=O)/C=C1\\S/C(=N\\c2ccccc2)N(CCN2CCCCC2)C1=O"
  assayed-target: "Schistosoma japonicum"
  mortality at 100 µM: "0%"
- molecule: "CCOC(=O)/C=C1\\S/C(=N\\c2ccc(C(F)(F)F)cc2)N(CCCN2CCN(C)CC2)C1=O"
  assayed-target: "Schistosoma japonicum"
  mortality at 100 µM: "20%"
- molecule: "CCOC(=O)/C=C1\\S/C(=N\\c2ccc(Cl)c(Cl)c2)N(CCCN2CCN(C)CC2)C1=O"
  assayed-target: "Schistosoma japonicum"
  mortality at 100 µM: "0%"
- molecule: "CN1CCN(CCCN2C(=O)/C(=C/c3ccc([N+](=O)[O-])cc3)S/C2=N\\c2ccc(C(F)(F)F)cc2)CC1"
  assayed-target: "Schistosoma japonicum"
  mortality at 100 µM: "0%"
- molecule: "CCOC(=O)/C=C1\\S/C(=N\\c2ccccc2)N(CCN(C)C)C1=O"
  assayed-target: "Schistosoma japonicum"
  mortality at 100 µM: "0%"

Data request: Given CCOC(=O)/C=C1\S/C(=N\c2cc(C(F)(F)F)cc(C(F)(F)F)c2)N(CCCN2CCN(C)CC2)C1=O , state its recorded mortality at 100 µM.
Data returned: 0%

Data request: Same question, Cc1cc(/C=C2\S/C(=N\c3ccc(C(F)(F)F)cc3)N(CCCN3CCN(C)CC3)C2=O)ccc1F this time
Data returned: 0%

Data request: Same question, CCOC(=O)/C=C1\S/C(=N\c2cc(F)ccc2F)N(CCCN2CCN(C)CC2)C1=O this time
Data returned: 0%

Data request: Same question, COc1cccc(/C=C2\S/C(=N\c3ccc(C(F)(F)F)cc3)N(CCCN3CCN(C)CC3)C2=O)c1 this time
Data returned: 0%

Data request: Same question, COc1ccccc1/C=C1\S/C(=N\c2ccc(C(F)(F)F)cc2)N(CCCN2CCN(C)CC2)C1=O this time
Data returned: 0%

Data request: Same question, CCOC(=O)/C=C1\S/C(=N\c2ccc(CC)cc2)N(CCCN2CCN(C)CC2)C1=O this time
Data returned: 0%

Data request: Same question, CN1CCN(CCCN2C(=O)/C(=C/c3ccccc3F)S/C2=N\c2ccc(C(F)(F)F)cc2)CC1 this time
Data returned: 0%

Data request: Same question, CCOC(=O)/C=C1\S/C(=N\c2ccccc2)N(CCCN2CCOCC2)C1=O this time
Data returned: 0%

* * *

# Tested on: Schistosoma japonicum
# assay-details: Anti-schistosomal activity against adult Schistosoma japonicum assessed as worm mortality at 100 uM measured at 12 hrs relative to control
# Format: functional
measurement-type: mortality at 100 µM (%)
Numbers only; they are read as %.

Recorded mortality at 100 µM, per entry:
- chemical-smiles: "CCOC(=O)/C=C1\\S/C(=N\\c2cc(F)ccc2F)N(CCCN2CCN(C)CC2)C1=O"
  observed: 0
- chemical-smiles: "Cc1ccc(/C=C2\\S/C(=N\\c3ccc(C(F)(F)F)cc3)N(CCCN3CCN(C)CC3)C2=O)cc1"
  observed: 0
- chemical-smiles: "CCOC(=O)/C=C1\\S/C(=N\\c2ccc([N+](=O)[O-])cc2)N(CCCN2CCN(C)CC2)C1=O"
  observed: 0
- chemical-smiles: "CCOC(=O)/C=C1\\S/C(=N\\c2ccc(C(F)(F)F)cc2)N(CCCN2CCN(C)CC2)C1=O"
  observed: 100
- chemical-smiles: "CCOC(=O)/C=C1\\S/C(=N\\c2ccc(F)cc2)N(CCCN2CCN(C)CC2)C1=O"
  observed: 0
- chemical-smiles: "CN1CCN(CCCN2C(=O)CS/C2=N\\c2ccc(C(F)(F)F)cc2)CC1"
  observed: 0
- chemical-smiles: "CCOC(=O)/C=C1\\S/C(=N\\c2ccccc2)N(Cc2ccccc2)C1=O"
  observed: 0
- chemical-smiles: "CCOC(=O)/C=C1\\S/C(=N\\c2ccc(CC)cc2)N(CCCN2CCN(C)CC2)C1=O"
  observed: 10

Data request: Given CCOC(=O)/C=C1\S/C(=N\c2ccccc2)N(CCCN2CCCC2)C1=O , state its recorded mortality at 100 µM.
Data returned: 0

Data request: Same question, COc1cccc(/C=C2\S/C(=N\c3ccc(C(F)(F)F)cc3)N(CCCN3CCN(C)CC3)C2=O)c1 this time
Data returned: 20

Data request: Same question, CCOC(=O)/C=C1\S/C(=N\c2ccccc2)N(CCN2CCCCC2)C1=O this time
Data returned: 0

Data request: Same question, CCOC(=O)/C=C1\S/C(=N\c2ccccc2C(F)(F)F)N(CCCN2CCN(C)CC2)C1=O this time
Data returned: 100

Data request: Same question, CCOC(=O)/C=C1\S/C(=N\C)N(CCCN2CCN(C)CC2)C1=O this time
Data returned: 0

* * *

# Tested on: Schistosoma japonicum
# assay-details: Anti-schistosomal activity against adult Schistosoma japonicum assessed as worm mortality at 100 uM measured at 8 hrs relative to control
# Format: functional
Each entry below lists one item and its recorded mortality at 100 µM value.

Recorded mortality at 100 µM, per entry:
- compound: "CN1CCN(CCCN2C(=O)/C(=C/c3ccccc3)S/C2=N\\c2ccc(C(F)(F)F)cc2)CC1"
  measurement-type: "mortality at 100 µM"
  observed: "0%"
- compound: "CCOC(=O)/C=C1\\S/C(=N\\C)N(CCCN2CCN(C)CC2)C1=O"
  measurement-type: "mortality at 100 µM"
  observed: "0%"
- compound: "COc1ccc(/C=C2\\S/C(=N\\c3ccc(C(F)(F)F)cc3)N(CCCN3CCN(C)CC3)C2=O)cc1"
  measurement-type: "mortality at 100 µM"
  observed: "0%"
- compound: "CN1CCN(CCCN2C(=O)/C(=C/c3ccccc3F)S/C2=N\\c2ccc(C(F)(F)F)cc2)CC1"
  measurement-type: "mortality at 100 µM"
  observed: "0%"
- compound: "CCOC(=O)/C=C1\\S/C(=N\\c2ccccc2)N(CCCN2CCOCC2)C1=O"
  measurement-type: "mortality at 100 µM"
  observed: "0%"

Data request: Given CCOC(=O)/C=C1\S/C(=N\c2ccc(F)cc2)N(CCCN2CCN(C)CC2)C1=O , state its recorded mortality at 100 µM.
Data returned: 0%

Data request: Same question, CCOC(=O)/C=C1\S/C(=N\c2ccc(Cl)cc2)N(CCCN2CCN(C)CC2)C1=O this time
Data returned: 40%

Data request: Same question, O=C(C1CCCCC1)N1CC(=O)N2CCc3ccccc3C2C1 (configuration not stated) this time
Data returned: 100%

Data request: Same question, CCOC(=O)/C=C1\S/C(=N\c2ccc(C(F)(F)F)cc2)N(CCCN2CCN(C)CC2)C1=O this time
Data returned: 50%

Data request: Same question, Cc1cc(/C=C2\S/C(=N\c3ccc(C(F)(F)F)cc3)N(CCCN3CCN(C)CC3)C2=O)ccc1F this time
Data returned: 0%

Data request: Same question, CCOC(=O)/C=C1\S/C(=N\c2ccc(Br)cc2)N(CCCN2CCN(C)CC2)C1=O this time
Data returned: 30%

Data request: Same question, CCOC(=O)/C=C1\S/C(=N\c2cccc(Br)c2)N(CCCN2CCN(C)CC2)C1=O this time
Data returned: 30%

Data request: Same question, CN1CCN(CCCN2C(=O)/C(=C/c3cccc(Cl)c3)S/C2=N\c2ccc(C(F)(F)F)cc2)CC1 this time
Data returned: 40%

Data request: Same question, CCOC(=O)/C=C1\S/C(=N\c2cc(C(F)(F)F)cc(C(F)(F)F)c2)N(CCCN2CCN(C)CC2)C1=O this time
Data returned: 40%

* * *

# Tested on: Schistosoma japonicum
# assay-details: Anti-schistosomal activity against adult Schistosoma japonicum assessed as worm mortality at 100 uM measured at 8 hrs relative to control
# Assay type: functional
Each entry below lists one item and its recorded mortality at 100 µM value.
Please format your answer as a value with the unit trailing.

- chemical-smiles: "CCOC(=O)/C=C1\\S/C(=N\\c2ccccc2)N(CCCN(C)C)C1=O"
  assayed-target: "Schistosoma japonicum"
  mortality at 100 µM: "0%"

Data request: Given CCOC(=O)/C=C1\S/C(=N\c2ccccc2)N(Cc2ccccc2)C1=O , state its recorded mortality at 100 µM.
Data returned: 0%

Data request: Same question, CN1CCN(CCCN2C(=O)/C(=C/c3cccc(F)c3)S/C2=N\c2ccc(C(F)(F)F)cc2)CC1 this time
Data returned: 0%

Data request: Same question, CCOC(=O)/C=C1\S/C(=N\c2ccc(Cl)c(Cl)c2)N(CCCN2CCN(C)CC2)C1=O this time
Data returned: 40%

Data request: Same question, CN1CCN(CCCN2C(=O)/C(=C/c3ccc(Cl)cc3)S/C2=N\c2ccc(C(F)(F)F)cc2)CC1 this time
Data returned: 0%

Data request: Same question, CCOC(=O)/C=C1\S/C(=N\c2ccc(OC)cc2)N(CCCN2CCN(C)CC2)C1=O this time
Data returned: 0%
